From: patent US11987588B2

Biological target: UniProt:P13945
Experiment: Homogeneous Time-Resolved Fluorescence (HTRF) cAMP antagonist assay, IC50 determination
Settings: CHO-K1 cells stably expressing recombinant receptor, isoproterenol at EC90
measured.property: pIC50
Would you please state pIC50, meaning minus log10 of the concentration in mol/L, as a bare number?

// worked examples, pIC50 included
compound: CNS(=O)(=O)c1cccc(OC[C@@H](O)CNC2COC3(CCN(S(=O)(=O)c4ccc(C(F)(F)F)cc4)CC3)C2)c1 (stereo partly shown) [Compound 45]
pIC50: 7.71
--
compound: CNS(=O)(=O)c1cccc(OC[C@@H](O)CNC2COC3(CCN(S(=O)(=O)c4cccc(Cl)c4Cl)CC3)C2)c1 (stereo partly shown) [Compound 142]
pIC50: 7.77
--
compound: CNS(=O)(=O)c1cccc(OC[C@@H](O)CNC2COC3(CCN(S(=O)(=O)c4ccc(-c5ccccn5)cc4)CC3)C2)c1 (stereo partly shown) [Compound 402]
pIC50: 7.69

Please examine the following record next.
Reported pIC50 for CNS(=O)(=O)c1cccc(OC[C@@H](O)CNC2COC3(CCN(S(=O)(=O)c4ccc(S(C)(=O)=O)cc4)CC3)C2)c1 (stereo partly shown) [Compound 37] : what is it?
7.31

* * *

Target: Beta-3 Adrenergic Receptor (Homo sapiens (Human), UniProt P13945)
Sequence (P13945 whole entry, species assumed): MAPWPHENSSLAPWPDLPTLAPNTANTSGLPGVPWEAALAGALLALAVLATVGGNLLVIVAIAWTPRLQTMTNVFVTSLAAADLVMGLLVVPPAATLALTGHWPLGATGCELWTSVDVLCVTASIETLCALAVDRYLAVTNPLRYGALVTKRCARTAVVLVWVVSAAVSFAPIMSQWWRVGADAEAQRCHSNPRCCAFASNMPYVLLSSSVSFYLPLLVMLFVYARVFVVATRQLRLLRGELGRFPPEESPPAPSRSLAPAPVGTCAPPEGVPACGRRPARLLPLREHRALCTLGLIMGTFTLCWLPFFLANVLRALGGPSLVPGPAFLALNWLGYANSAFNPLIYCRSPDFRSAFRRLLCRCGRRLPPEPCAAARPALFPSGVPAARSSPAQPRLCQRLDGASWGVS
Experiment: Homogeneous Time-Resolved Fluorescence (HTRF) cAMP antagonist assay, IC50 determination
Settings: CHO-K1 cells stably expressing recombinant receptor, isoproterenol at EC90
measured.property: pIC50
Would you please state pIC50, meaning minus log10 of the concentration in mol/L, as a bare number?

compound: CNS(=O)(=O)c1cccc(OC[C@@H](O)CNC2COC3(CCN(S(=O)(=O)c4cccc(-c5ccc(CNC(=O)CN)cc5)c4)CC3)C2)c1 (stereo partly drawn) [Compound 353]
tgt: Beta-3 Adrenergic Receptor (Homo sapiens (Human), UniProt P13945)
pIC50: 7.24
--
compound: CNS(=O)(=O)c1cccc(OC[C@@H](O)CN[C@H]2COC3(CCN(S(=O)(=O)c4cnc5c(c4)c(Cl)cn5C)CC3)C2)c1 [Compound 513]
tgt: Beta-3 Adrenergic Receptor (Homo sapiens (Human), UniProt P13945)
pIC50: 8.20

Please examine the following record next.
Reported pIC50 for CCNS(=O)(=O)c1cccc(OC[C@@H](O)CNC2COC3(CCN(S(=O)(=O)c4c(C)noc4C)CC3)C2)c1 (stereo partly drawn) [Compound 232] : what is it?
6.73

* * *

Target: UniProtKB P13945
Assay: Homogeneous Time-Resolved Fluorescence (HTRF) cAMP antagonist assay, IC50 determination
Conditions: CHO-K1 cells stably expressing recombinant receptor, isoproterenol at EC90
Lab note: cut-off is 100 nM. Strictly less in IC50 is yes. Exactly 100 nM or more is no.

compound: CC(C)(CO)NS(=O)(=O)c1cccc(OC[C@@H](O)CNC2COC3(CCN(S(=O)(=O)c4ccc5ccccc5c4)CC3)C2)c1 (stereo partly shown)
class: no

compound: NS(=O)(=O)c1cccc(OC[C@@H](O)CN[C@H]2COC3(CCN(S(=O)(=O)c4c[nH]c5c(F)cccc5c4=O)CC3)C2)c1
class: yes

compound: CNS(=O)(=O)c1cccc(OC[C@@H](O)CNC2COC3(CCN(S(=O)(=O)c4cccc(-c5cccc(CN(C)C)c5)c4)CC3)C2)c1 (stereo partly shown)
class: yes

compound: CNS(=O)(=O)c1cccc(OC[C@@H](O)CN[C@H]2COC3(CCN(S(=O)(=O)c4cnc5c(c4)OCCN5C)CC3)C2)c1
class: yes

compound: CNS(=O)(=O)c1cccc(OC[C@@H](O)CNC2COC3(CCN(S(=O)(=O)c4ccc(NCCO)nc4)CC3)C2)c1 (stereo partly shown)
class: yes

compound: CCn1ccc(=O)c(S(=O)(=O)N2CCC3(CC2)C[C@@H](NC[C@H](O)COc2cccc(S(=O)(=O)NC)c2)CO3)c1
class: no

compound: CNS(=O)(=O)c1cccc(OC[C@@H](O)CNC2COC3(CCN(S(=O)(=O)c4cccc(-c5cscc5C)c4)CC3)C2)c1 (stereo partly shown)
class: yes

compound: CCn1cnc2cc(S(=O)(=O)N3CCC4(CC3)C[C@@H](NC[C@H](O)COc3cccc(S(=O)(=O)NC)c3)CO4)cnc21
class: yes

Strictly below 100 nM in IC50? CNS(=O)(=O)c1cccc(OC[C@@H](O)CN[C@H]2COC3(CCN(S(=O)(=O)c4cnc5c(c4)N(CCOC)CCO5)CC3)C2)c1
yes

Also CC(O)CNS(=O)(=O)c1cccc(OC[C@@H](O)CNC2COC3(CCN(S(=O)(=O)c4ccc5ccccc5c4)CC3)C2)c1 (stereo partly shown) ?
yes

Also CNS(=O)(=O)c1cccc(OC[C@@H](O)CN[C@H]2COC3(CCN(c4cnc(C(F)(F)F)cn4)CC3)C2)c1 ?
no

Also CNS(=O)(=O)c1cccc(OC[C@@H](O)CNC2COC3(CCN(S(=O)(=O)c4ccc(OC)c5c4CCCC5)CC3)C2)c1 (stereo partly shown) ?
no

Also CNS(=O)(=O)c1cccc(OC[C@@H](O)CNC2COC3(CCN(S(=O)(=O)c4cccc(CN)c4)CC3)C2)c1 (stereo partly shown) ?
no
